The measurements presented in this section are drawn from patent US10722582B2.

- System: S. aureus (PCI 1203)
- experiment: Competitive hemin uptake assay (fluorescence microscopy)
- Type: cell-based, Staphylococcus aureus
- conditions: Fe-deficient conditions (TS media containing 3 mM bipy); no background subtraction
- Procedure: To elucidate the relevant structural features for the specific uptake of Ga-PpIX by S. aureus, we performed a competitive uptake assay using one equivalent of hemin against Ga-PpIX, PpIX, and eleven other fluorescent PpIX derivatives, with evaluation by fluorescence microscopy after 15 minutes of co-incubation (FIG. 5 and Table 4). […]
Catalogue of Fluorescence after 15 min readings, one per entry.
parameter: Fluorescence after 15 min (a.u.)

1. CC1=C(CCC(=O)O)c2cc3[nH]c(cc4nc(cc5[nH]c(cc1n2)c(C)c5C(C)O)C(C)=C4C(C)O)c(C)c3CCC(=O)O (stereo not drawn) [HP (4), hematoporphyrin] = 14.38
2. C=CC1=C(C)c2cc3[n-]c(cc4[n-]c(cc5nc(cc1n2)C(C)=C5C=C)c(C)c4CCC(=O)O)c(CCC(=O)O)c3C.[Cl-].[Fe+3] [hemin, Fe(III)-protoporphyrin IX, reference compound] = 2.55
3. COC(=O)CCc1c(C)c2cc3nc(cc4nc(cc5[nH]c(cc1[nH]2)c(CCC(=O)OC)c5C)C(C(C)O)=C4C)C(C(C)O)=C3C (stereo not drawn) [HP diMe (8), HP dimethyl diester] = 29.05
4. C=CC1=C(C)c2cc3[nH]c(cc4[nH]c(cc5nc(cc1n2)C(C)=C5C=C)c(C)c4CCC(=O)OC)c(CCC(=O)OC)c3C [PpIX diMe (7), PpIX dimethyl diester] = 15.75
5. C=CC1=C(C)c2cc3[nH]c(cc4nc(cc5[nH]c(cc1n2)c(C)c5CCC(=O)O)C(CCC(=O)O)=C4C)c(C)c3C=C [PpIX (2), PpIX, reference compound] = 16.70
6. C=CC1=C(C)c2cc3[n-]c(cc4nc(cc5[n-]c(cc1n2)c(C)c5C=C)C(C)=C4CCC(=O)O)c(CCC(=O)O)c3C.[Zn+2] [Zn-PpIX (3), Zn-PpIX] = 31.45
